Data provenance is PubChem BioAssay (EPA / NIEHS).

- Read-out: Interleukin-8 (IL8), CXCL8 (gene 3576)
- assayMethodText: BSK_SAg_IL8: BioMAP Diversity Plus: SAg Assay for Interleukin-8 (IL8) Biomarker Activity (AID 2283094)
- conditions: primary human HUVEC with PBMC; actives raise or lower the signal
Activity calls are given as the source filed them. Rule for the calls: active = hit-call score of the fitted dose curve at least 0.9, where 1 is the maximum; inactive = score below 0.9.
Possible outcomes: t (active), f (inactive)

compound: N#CC(Br)Br
label: f
//
compound: CC(C)COC(=O)c1ccccc1C(=O)OCC(C)C
label: f
//
compound: [As]#[In]
label: f
//
compound: CN(C)[C@@H]1C(=O)C(C(N)=O)=C(O)[C@@]2(O)C(=O)C3=C(O)c4c(O)cccc4[C@@](C)(O)[C@H]3C[C@@H]12
label: f
//
compound: O=C(O)C1C2CCC(O2)C1C(=O)O (configuration not stated)
label: f
//
compound: CN(C)c1ccc(C(=O)c2ccc(N(C)C)cc2)cc1
label: f
//
compound: O=[N+]([O-])c1ccc(Oc2ccc(Cl)cc2Cl)cc1
label: t
//
compound: CCCCCCCCn1sccc1=O
label: t
//
compound: O=C(N[C@H](c1ccccc1)[C@@H]1CN2CCC1CC2)c1c(Cl)ccc(C(F)(F)F)c1Cl
label: t
//
compound: CC(C)(C)OOC(C)(C)CCC(C)(C)OOC(C)(C)C
label: f
//
compound: CC(C)(O)c1cnn2c(-c3ccc(F)c(-c4c(F)cccc4C#N)c3)cnc2n1
label: t
//
compound: Clc1ccc(C(c2ccc(Cl)cc2)C(Cl)(Cl)Cl)cc1
label: t

====

- testedTarget: Norway rat Vesicular Monoamine Transporter (VMAT2), neurotransmitter transporter, Slc18a2 (gene 25549) (UniProt Q01827)
- Sequence (Q01827 whole entry, looked up): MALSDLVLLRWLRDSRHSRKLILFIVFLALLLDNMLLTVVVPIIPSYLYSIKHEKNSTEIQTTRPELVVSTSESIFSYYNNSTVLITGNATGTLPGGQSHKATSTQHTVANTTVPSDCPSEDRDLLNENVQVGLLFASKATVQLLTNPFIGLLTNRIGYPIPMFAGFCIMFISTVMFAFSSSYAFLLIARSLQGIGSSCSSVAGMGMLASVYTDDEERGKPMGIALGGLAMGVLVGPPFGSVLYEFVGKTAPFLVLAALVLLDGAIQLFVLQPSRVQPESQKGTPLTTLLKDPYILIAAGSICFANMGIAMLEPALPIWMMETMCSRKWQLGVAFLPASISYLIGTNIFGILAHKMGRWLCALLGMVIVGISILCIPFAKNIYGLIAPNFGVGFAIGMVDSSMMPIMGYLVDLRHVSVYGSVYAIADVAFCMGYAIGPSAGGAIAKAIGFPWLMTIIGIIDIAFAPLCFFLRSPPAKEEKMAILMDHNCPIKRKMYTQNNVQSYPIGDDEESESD
- assayMethodText: NVS_TR_rVMAT2: NovaScreen (NVS) Transporter Assay for Norway rat Vesicular Monoamine Transporter (VMAT2), neurotransmitter transporter (AID 2283376);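 note: actives lower the bound radioligand signal below the DMSO level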
Records with an inconclusive call do not appear. The source made the active and inactive calls. Rule for the calls: active = hit-call score of the fitted dose curve at least 0.9, where 1 is the maximum; inconclusive = response in the unintended direction; inactive = score below 0.9.
Possible outcomes: t (active), f (inactive)

querySmiles: C[C@]12C=CC3=C4CCC(=O)C=C4CC[C@H]3[C@@H]1CC[C@@H]2O
label: t
--
querySmiles: CC(C)(OOC(C)(C)c1ccccc1)c1ccccc1
label: f
--
querySmiles: C=CCc1ccc2c(c1)OCO2
label: f
--
querySmiles: CCCCCCCCOC(=O)c1ccc(C(=O)OCCCCCCCC)c(C(=O)OCCCCCCCC)c1
label: f

====

- Read-out: 3-Hydroxy-3-Methylglutaryl-CoA Synthase 2 (HMGCS2), HMGCS2 (gene 3158)
- assayMethodText: LTEA_HepaRG_HMGCS2: Life Technologies and Expression Analysis (LTEA) Assay for 3-Hydroxy-3-Methylglutaryl-CoA Synthase 2 (HMGCS2) using HepaRG (AID 2283504)
- conditions: mRNA level, 48 h; actives raise or lower the signal
Active and inactive are the calls of the source. How the source made its calls: active means hit-call score of the fitted dose curve at least 0.9, where 1 is the maximum; inactive means score below 0.9.
Labels: label 1 for active, label 0 for inactive

compound: c1ccc2c(c1)-c1cccc3cccc-2c13
label: label 0
//
compound: C1=Cc2cccc3cccc1c23
label: label 0
//
compound: Clc1ccc(C(c2ccc(Cl)cc2)C(Cl)Cl)cc1
label: label 0
//
compound: CCOC(=O)[C@]1(c2ccccc2)Oc2ccccc2[C@@H]1N
label: label 1
//
compound: Nc1ccc(Cc2ccc(N)cc2)cc1
label: label 0
//
compound: c1ccc(C2CO2)cc1 (centres undefined)
label: label 0
//
compound: c1ccc(N=Nc2ccccc2)cc1
label: label 0
//
compound: Brc1ccc(Oc2ccccc2)cc1
label: label 0
//
compound: O=C(O)C1C2CCC(O2)C1C(=O)O (centres undefined)
label: label 1
//
compound: CCOc1cccc(C2(N3CCN(c4ccccc4)CC3)CCC(C)CC2)c1 (centres undefined)
label: label 0
//
compound: Cc1cccc(N)c1N
label: label 1
//
compound: CCCCCCCCn1sccc1=O
label: label 1
//
compound: Cn1cc(-c2ccccc2)c(=O)c(-c2cccc(C(F)(F)F)c2)c1
label: label 0
//
compound: Clc1ccc(C(c2ccc(Cl)cc2)C(Cl)(Cl)Cl)cc1
label: label 0
//
compound: CC(C)(C)OOC(C)(C)CCC(C)(C)OOC(C)(C)C
label: label 0
//
compound: Nc1ccc(N=Nc2ccccc2)cc1
label: label 1
//
compound: ClC1=C(Cl)[C@]2(Cl)[C@H]3[C@H]([C@@H]4C=C[C@H]3C4)[C@@]1(Cl)C2(Cl)Cl
label: label 0
//
compound: O=P(OCCCl)(OCCCl)OCCCl
label: label 0
//
compound: Cc1ccc(N=C=O)cc1N=C=O
label: label 1
//
compound: OCCCBr
label: label 0
//
compound: N#CC(Br)(Br)C(N)=O
label: label 0
//
compound: CCCCCCCCOC(=O)c1ccc(C(=O)OCCCCCCCC)c(C(=O)OCCCCCCCC)c1
label: label 0
//
compound: CS(=O)(=O)NC(=O)c1cc(Oc2ccc(C(F)(F)F)cc2Cl)ccc1[N+](=O)[O-]
label: label 1
//
compound: Cc1cc(N=Nc2ccccc2C)ccc1N
label: label 1
//
compound: CCCCCOC(=O)c1ccccc1C(=O)OCCCCC
label: label 0
//
compound: Nc1cc(Cl)cc(C(=O)O)c1Cl
label: label 0
//
compound: Nc1ccc(Oc2ccc(N)cc2)cc1
label: label 0
//
compound: CCC12COCN1COC2
label: label 0
//
compound: Nc1ccc([N+](=O)[O-])cc1
label: label 0
//
compound: ClCCOCCCl
label: label 0
//
compound: O=C(Oc1ccc(Br)cc1)N1CCN2CCC1CC2
label: label 0
//
compound: CC(C)N(Cc1ccccc1)C(=O)C(C)(C)C
label: label 0
//
compound: O=C(Nc1ccccc1)c1ccccc1I
label: label 0
//
compound: C[C@]12C=CC3=C4CCC(=O)C=C4CC[C@H]3[C@@H]1CC[C@@H]2O
label: label 0
//
compound: CCCCOC(=O)c1ccccc1C(=O)OCc1ccccc1
label: label 0
//
compound: CCCSC(=O)N(CCC)CCC
label: label 0
//
compound: COC(=O)c1ccccc1N
label: label 0
//
compound: O=Cc1ccco1
label: label 0
//
compound: CN(C)C(=O)Nc1ccc(Cl)cc1
label: label 0
//
compound: O=[N+]([O-])c1ccc(Oc2ccc(Cl)cc2Cl)cc1
label: label 0
//
compound: CC(C)COC(=O)c1ccccc1C(=O)OCC(C)C
label: label 0
//
compound: Cc1ccc([N+](=O)[O-])cc1
label: label 0
//
compound: CC(C)(OOC(C)(C)c1ccccc1)c1ccccc1
label: label 0
//
compound: Oc1ccc2ccc3cccc4ccc1c2c34
label: label 0
//
compound: Oc1ccccc1Cl
label: label 0
//
compound: O=[N+]([O-])C(Br)(CO)CO
label: label 0
//
compound: COP(=S)(OC)SCN1C(=O)c2ccccc2C1=O
label: label 0
//
compound: Cc1ccc(N)c(N)c1
label: label 0
//
compound: Cc1ccc(N)cc1
label: label 0

====

- testedTarget: Heat shock factor protein 1 (Homo sapiens)
- assayMethodText: ATG_HSE_CIS: Attagene CIS-FACTORIAL HepG2 Assay for human Heat Shock Transcription Factor 1 (HSE) (AID 2282953)
- conditions: HepG2 HSE cis-reporter, Attagene RNA transcription; actives raise or lower the signal
Active and inactive are the calls of the source. The calls were made as follows: active = hit-call score of the fitted dose curve at least 0.9, where 1 is the maximum; inactive = score below 0.9.

molecule: ClCCOCCCl
outcome: inactive
//
molecule: COC(=O)c1ccccc1N
outcome: inactive
//
molecule: CCC(C)c1ccc(O)cc1 (centres undefined)
outcome: inactive
//
molecule: CCN(CC)N=O
outcome: inactive
//
molecule: Oc1ccccc1Cl
outcome: inactive
//
molecule: O=C1CCCO1
outcome: inactive
//
molecule: O=Cc1ccco1
outcome: inactive
//
molecule: c1ccc(C2CO2)cc1 (centres undefined)
outcome: inactive
//
molecule: Cc1ccc(N)cc1
outcome: inactive

====

- assayMethodText: ATG_TA_CIS: Attagene CIS-FACTORIAL HepG2 Assay for human TA Basal Promoter (AID 2282964)
- conditions: HepG2 Attagene CIS-factorial TA basal promoter reporter; actives raise or lower the signal
Calls of active or inactive are those of the source. The calls were made as follows: active = hit-call score of the fitted dose curve at least 0.9, where 1 is the maximum; inactive = score below 0.9.

querySmiles: Cc1ccc([N+](=O)[O-])cc1
AC50: inactive
--
querySmiles: CC(C)N(Cc1ccccc1)C(=O)C(C)(C)C
AC50: inactive
--
querySmiles: O=P(OCCCl)(OCCCl)OCCCl
AC50: inactive
--
querySmiles: Clc1ccccc1Cl
AC50: inactive
--
querySmiles: CCOC(=O)[C@]1(c2ccccc2)Oc2ccccc2[C@@H]1N
AC50: 33 µM (active)
--
querySmiles: N#CC(Br)Br
AC50: inactive
--
querySmiles: COC(=O)Nc1nc2ccccc2[nH]1
AC50: inactive
--
querySmiles: CCC[CH2][Sn]([Cl])([CH2]CCC)[CH2]CCC
AC50: 0.698 µM (active)
--
querySmiles: CNC(=O)Oc1cccc2c1OC(C)(C)C2
AC50: inactive
--
querySmiles: Nc1ccc(Cl)cc1N
AC50: 9.74 µM (active)
--
querySmiles: Cc1cc(N=Nc2ccccc2C)ccc1N
AC50: 19 µM (active)
--
querySmiles: CCCSC(=O)N(CCC)CCC
AC50: inactive
